Experiment Description: Approximate solubilities of solid forms in solvents
Assay type: physicochemical
Condition Details: organic solvent or mixture, thermodynamic from solid; solvent Methyl t-butyl ether; about 25° C., at least 24 hours; read-out: Approximate Solubility (mg/mL) of Form A of the Free Base of Compound I
Protocol: A weighed sample comprising either the free base or the HCl salt of Compound I was treated with 2 mL of a solvent (either HPLC or reagent grade). The resulting mixture was agitated for at least 24 hours at about 25° C. When all of the solids were dissolved by visual inspection, the estimated solubility was calculated. […] The actual solubility may be greater than those calculated due to the use of a large amount of solvent or a slow rate of dissolution. […]
Metric Name: solubility (mg/mL)

INSERT INTO assay_data (molecule, metric_name, meas_value) VALUES
  ('O[C@H]1CC[C@H](Nc2ncc3nc(Nc4c(F)cc(F)cc4F)n([C@H]4CCOC4)c3n2)CC1 (stereo in doubt) [Form A of the Free Base of Compound I]', 'solubility', 0.46);

###

Experiment Description: Approximate solubilities of solid forms in solvents
Type: physicochemical
Condition Details: methyl ethyl ketone, 25 °C, organic solvent or mixture, thermodynamic from solid, column 1; solvent Methyl ethyl ketone; about 25° C., at least 24 hours; read-out: Approximate Solubility (mg/mL) of Form A of the Free Base of Compound I
Metric Name: solubility (mg/mL)

INSERT INTO results (compound, meas_value) VALUES
  ('O[C@H]1CC[C@H](Nc2ncc3nc(Nc4c(F)cc(F)cc4F)n([C@H]4CCOC4)c3n2)CC1 (stereo in doubt) [Form A of the Free Base of Compound I]', 8.74);

###

Experiment Description: Approximate solubilities of solid forms in solvents
Type: physicochemical
Condition Details: methanol, 25 °C, organic solvent or mixture, thermodynamic from solid; solvent Methanol; about 25° C., at least 24 hours; read-out: Approximate Solubility (mg/mL) of Form A of the Free Base of Compound I
Metric Name: solubility

INSERT INTO results (compound, metric_name, meas_value) VALUES
  ('O[C@H]1CC[C@H](Nc2ncc3nc(Nc4c(F)cc(F)cc4F)n([C@H]4CCOC4)c3n2)CC1 (stereo in doubt) [Form A of the Free Base of Compound I]', 'solubility', '> 50 mg/mL');

###

Experiment Description: Approximate solubilities of solid forms in solvents
Assay type: physicochemical
Condition Details: heptane, 25 °C, organic solvent or mixture, thermodynamic from solid; solvent Heptane; about 25° C., at least 24 hours; read-out: Approximate Solubility (mg/mL) of Form A of the Free Base of Compound I
Metric Name: solubility (mg/mL)

INSERT INTO results (compound, metric_name, meas_value) VALUES
  ('O[C@H]1CC[C@H](Nc2ncc3nc(Nc4c(F)cc(F)cc4F)n([C@H]4CCOC4)c3n2)CC1 (stereo in doubt) [Form A of the Free Base of Compound I]', 'solubility', 0.51);

###

Experiment Description: Approximate solubilities of solid forms in solvents
Format: physicochemical
Condition Details: toluene, 25 °C, organic solvent or mixture, thermodynamic from solid; solvent Toluene; about 25° C., at least 24 hours; read-out: Approximate Solubility (mg/mL) of Form A of the Free Base of Compound I
Metric Name: solubility (mg/mL)

INSERT INTO assay_data (molecule, units_text, meas_value) VALUES
  ('O[C@H]1CC[C@H](Nc2ncc3nc(Nc4c(F)cc(F)cc4F)n([C@H]4CCOC4)c3n2)CC1 (stereo in doubt) [Form A of the Free Base of Compound I]', 'mg/mL', 0.04);
